Form field: EC50 (one value per entry).
target: HEK cells stably transfected with tetracycline inducible hNR1 and hNR2A (Homo sapiens, UniProt Q05586+Q12879); construct: expressed in transfected cells; host or cells: HEK cells, stably transfected, tetracycline/doxycycline inducible; assay: Assay 1: Cell-Based Assay, cytosolic calcium response to positive allosteric modulators (with 30 μM glycine and 300 nM L-glutamate, EC30); conditions: Table 3; cytosolic calcium response, with 30 μM glycine and 300 nM L-glutamate (EC30); — = no plateau was reached
Sequence (Q12879 23-1464, other chains not shown): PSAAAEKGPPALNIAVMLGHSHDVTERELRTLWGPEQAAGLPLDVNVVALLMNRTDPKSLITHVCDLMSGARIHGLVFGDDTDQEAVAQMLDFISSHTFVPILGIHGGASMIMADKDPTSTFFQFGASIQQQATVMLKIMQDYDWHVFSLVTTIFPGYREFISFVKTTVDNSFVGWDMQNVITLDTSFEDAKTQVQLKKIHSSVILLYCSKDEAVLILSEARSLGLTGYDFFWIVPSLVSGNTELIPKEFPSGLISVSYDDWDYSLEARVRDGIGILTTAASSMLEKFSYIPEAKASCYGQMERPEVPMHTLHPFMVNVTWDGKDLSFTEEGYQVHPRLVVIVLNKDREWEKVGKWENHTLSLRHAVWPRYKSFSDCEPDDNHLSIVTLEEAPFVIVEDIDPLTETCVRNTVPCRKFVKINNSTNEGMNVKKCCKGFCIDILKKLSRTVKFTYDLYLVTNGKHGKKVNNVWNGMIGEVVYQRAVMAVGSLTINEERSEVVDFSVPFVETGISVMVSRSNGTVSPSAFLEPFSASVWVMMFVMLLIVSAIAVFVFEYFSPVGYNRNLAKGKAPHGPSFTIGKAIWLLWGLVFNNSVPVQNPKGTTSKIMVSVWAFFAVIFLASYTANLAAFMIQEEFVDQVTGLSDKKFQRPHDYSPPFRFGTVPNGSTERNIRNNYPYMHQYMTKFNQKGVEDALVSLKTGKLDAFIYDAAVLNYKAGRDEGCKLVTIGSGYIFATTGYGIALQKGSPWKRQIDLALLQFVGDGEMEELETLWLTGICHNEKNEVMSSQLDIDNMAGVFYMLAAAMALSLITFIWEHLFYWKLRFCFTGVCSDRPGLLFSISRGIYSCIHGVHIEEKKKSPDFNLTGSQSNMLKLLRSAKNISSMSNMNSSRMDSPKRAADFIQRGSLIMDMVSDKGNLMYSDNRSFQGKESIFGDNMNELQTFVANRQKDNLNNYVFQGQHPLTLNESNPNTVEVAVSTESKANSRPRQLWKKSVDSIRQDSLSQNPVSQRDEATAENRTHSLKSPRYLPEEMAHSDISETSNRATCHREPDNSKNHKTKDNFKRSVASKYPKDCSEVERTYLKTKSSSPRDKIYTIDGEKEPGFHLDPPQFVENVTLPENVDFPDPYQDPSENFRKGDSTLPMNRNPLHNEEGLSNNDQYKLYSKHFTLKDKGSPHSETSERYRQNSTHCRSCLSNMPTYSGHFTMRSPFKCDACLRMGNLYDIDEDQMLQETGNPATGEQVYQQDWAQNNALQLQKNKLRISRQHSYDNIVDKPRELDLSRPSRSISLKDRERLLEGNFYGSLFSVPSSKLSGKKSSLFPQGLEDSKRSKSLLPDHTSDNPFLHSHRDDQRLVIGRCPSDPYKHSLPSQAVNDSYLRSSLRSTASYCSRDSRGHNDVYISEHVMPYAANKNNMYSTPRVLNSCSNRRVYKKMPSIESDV
Report only the number, with the unit µM understood.

compound O=c1cc(Cn2nc(Cl)cc2C(F)(F)F)nc2sc(C(F)(F)F)c(-c3cccnc3)n12 [compound 173] , EC50 observed: 24.7

The reported value for CCNC(=O)c1c(C(F)(F)F)sc2nc(Cn3nc(C(F)(F)F)cc3C)cc(=O)n12 [compound 45] in terms of EC50 is 1.25

// CCNC(=O)c1c(OC)sc2nc(Cc3cccc(C(F)(F)F)c3F)cc(=O)n12 [compound 91] : EC50 value = 1.03

CNC(=O)c1c(C(F)(F)F)sc2nc(Cc3cccc(C(F)(F)F)c3F)cc(=O)n12 [compound 63] yielded EC50 of 3.71

For reference, reported EC50 for Cc1sc2nc(Cn3nc(Cl)cc3N)cc(=O)n2c1Br [compound 228] stands at 32.2

Lookup result for Cc1sc2nc(Cn3nc(Cl)cc3C(F)(F)F)cc(=O)n2c1-c1cncc(F)c1 [compound 139] ; measured EC50: 6.36

Input COCc1c(C)sc2nc(Cn3nc(C(F)(F)F)cc3Cl)cc(=O)n12 [compound 183] . Output EC50: 5.29

response.value for CCNC(=O)c1c(C(F)(F)F)sc2nc(Cc3cccc(C#N)c3F)cc(=O)n12 [compound 41] (field: EC50) = 4.78

According to the records, this compound Cc1sc2nc(Cn3nc(Cl)cc3C(F)(F)F)cc(=O)n2c1C(=O)C(C)C [compound 178] displays EC50 of 0.354

The reported value for Cc1sc2nc(Cn3nc(Cl)cc3C(F)(F)F)cc(=O)n2c1C1CC1CO (centres unmarked) [compound 103] in terms of EC50 is 0.251

Reported EC50 ( CCNC(=O)c1c(C(F)(F)F)sc2nc(CN(C)c3ccc(F)cn3)cc(=O)n12 [compound 230] ) = 6.86

What the record says about Cc1sc2nc(Cn3nc(C(F)(F)F)cc3Cl)cc(=O)n2c1C1CC1CO (single isomer, unassigned) [compound 137] : EC50 is 0.42

Item: CC1CC1c1c(C(F)(F)F)sc2nc(Cc3cccc(C#N)c3F)cc(=O)n12 (centres unmarked) [compound 253] | EC50: 9.95

For this compound ( CNC(=O)c1c(C)sc2nc(Cn3cc(C(F)(F)F)cn3)cc(=O)n12 [compound 72] ), measured EC50 is 62.6

Value of EC50 reported for the compound CNC(=O)Cc1c(C)sc2nc(Cc3cccc(Cl)c3F)cc(=O)n12 [compound 7] is 9.73

Field EC50 (entry CNC(=O)Cc1c(C(F)(F)F)sc2nc(Cc3cccc(C(F)(F)F)c3F)cc(=O)n12 [compound 75] ) reads 28.9

Per the records, this compound ( Cc1sc2nc(Cn3nc(C(F)(F)F)cc3Cl)cc(=O)n2c1C(C)C#N (centres unmarked) [Example 251A] ) has EC50 equal to 2.62
